These data points were gathered from ChEMBL document CHEMBL6120973.

- Test system: Human immunodeficiency virus 1
- procedureDetails: Antiviral activity against HIV-1 harboring RT Y188L mutant infected in human MT4 cells assessed as protection against virus-induced cytopathic effect incubated for 5 days by MTT assay
- Assay type: functional, organism-based
- condition: Human immunodeficiency virus 1, MT4, 120 h
// values below are reported EC50
Value expressed in nM; do not type the unit.

The value of EC50 measured for the compound Cc1cc(-c2ccncc2)cc(C)c1Nc1nc(Nc2ccc(C#N)cc2)ncc1-c1ccco1 turned out to be 15

The value of EC50 measured for the compound Cc1cn([C@H]2C[C@H](N=[N+]=[N-])[C@@H](CO)O2)c(=O)[nH]c1=O turned out to be 33

The value of EC50 measured for the compound Cc1cc(-c2ccncc2)cc(C)c1Nc1nc(Nc2ccc(C#N)cc2)ncc1-c1ccc(N)nc1 turned out to be 50

The value of EC50 measured for the compound Cc1cc(-c2ccncc2)cc(C)c1Nc1nc(Nc2ccc(C#N)cc2)ncc1-c1cn[nH]c1 turned out to be 13

The value of EC50 measured for the compound Cc1cc(-c2ccncc2)cc(C)c1Nc1nc(Nc2ccc(C#N)cc2)ncc1-c1ccsc1 turned out to be 47

The value of EC50 measured for the compound COc1cc(-c2cnc(Nc3ccc(C#N)cc3)nc2Nc2c(C)cc(-c3ccncc3)cc2C)ccn1 turned out to be 91

The value of EC50 measured for the compound N#Cc1ccc(Nc2nccc(Nc3c(F)cc(-c4ccncc4)cc3F)n2)cc1 turned out to be 57
